- measurement description: Oral bioavailability in rat at 3 mg/kg
- Type: ADME, organism-based
- condition summary: in vivo
property name: bioavailability (%)
# number only, unit % dropped from output

Query :: Write down bioavailability measured for item CN1CCN(CCOc2cccc(CC(=O)Nc3nc(-c4c[nH]c5ncccc45)cs3)c2)CC1
Result :: 46

* * *

- measurement description: AUC(0 to infinity) in rat at 1 mg/kg, iv
- Type: ADME, organism-based
- Design: route intravenous, time infinity, dose 1 mg/kg
- condition summary: in vivo
property name: AUC(0-inf) (ng·h/mL)
Reply numerically in ng·h/mL, unit not repeated.

Query :: Please report AUC(0-inf) for the following compound: CN1CCN(CCOc2cccc(CC(=O)Nc3nc(-c4c[nH]c5ncccc45)cs3)c2)CC1
Result :: 240

Query :: Using known records, supply AUC(0-inf) for O=C(Cc1cccc(OCCCC2CCNCC2)c1)Nc1nc(-c2c[nH]c3ncc(F)cc23)cs1
Result :: 250

Query :: Dear colleague, please send me the reported AUC(0-inf) for CN1CCN(CCCOc2cccc(CC(=O)Nc3nc(-c4c[nH]c5ncccc45)cs3)c2)CC1 when you can.
Result :: 150

Query :: Give the reported value of AUC(0-inf) for this record: O=C(Cc1cccc(OCCCC2CCNCC2)c1)Nc1nc(-c2c[nH]c3nccc(F)c23)cs1
Result :: 250

Query :: Tell us which AUC(0-inf) value is on record for O=C(Cc1cccc(OCCCC2CCNCC2)c1)Nc1nc(-c2c[nH]c3ncccc23)cs1
Result :: 130

// data source = ChEMBL document CHEMBL4673338
